The values you see were collected from the supplement of paper PMC8671470.

# System: KU-812
# assay_overview: cell viability (% survival relative to DMSO control, bortezomib = 0%); higher = less cytotoxic
# reported_conditions: 1 nM; 72 h
cell viability listing for selected molecules.
Supply the numeric figure in %, leaving out any unit text.

Some molecules with known cell viability results, for comparison:
molecule: OCCN(CCO)c1nc(N2CCCCC2)c2nc(N(CCO)CCO)nc(N3CCCCC3)c2n1
cell viability, %: 87.9
--
molecule: NC(CCC(=O)NC(CSCc1ccc(Br)cc1)C(=O)NCC(=O)OC1CCCC1)C(=O)OC1CCCC1 (configuration not stated)
cell viability, %: 90.1
--
molecule: C[C@H]1O[C@H](O[C@H]2[C@H](O)[C@@H](O)[C@@H](O[C@H]3[C@H](O)[C@@H](O)C(O)O[C@@H]3CO)O[C@@H]2CO)[C@H](O)[C@@H](O)[C@@H]1N[C@H]1C=C(CO)[C@@H](O)[C@H](O)[C@H]1O (mixture of isomers)
cell viability, %: 91.8

Please look at "CCCCCCCCCCCCCCOc1ccc(C(=O)O)o1" and tell me its recorded cell viability on KU-812.
109

Please look at CCCCCCCNC=O [N-Heptyl-Formamide] and tell me its recorded cell viability on KU-812.
108

Please look at "Cl.OC[C@H]1NC[C@H](O)[C@@H](O)[C@H]1O" and tell me its recorded cell viability on KU-812.
92.1

Please look at "Nc1ccn([C@@H]2O[C@H](CO)[C@@H](O)C2(F)F)c(=O)n1" and tell me its recorded cell viability on KU-812.
90.8

----------
# System: Mono-Mac-6
# assay_overview: cell viability (% survival relative to DMSO control, bortezomib = 0%); higher = less cytotoxic
# reported_conditions: 1000 nM; 72 h
cell viability listing for selected compounds.
Supply the numeric figure in %, leaving out any unit text.

compound: Cl.OC[C@H]1NC[C@H](O)[C@@H](O)[C@H]1O
cell viability / %: 98.3

Retrieve cell viability measured for "O=c1[nH]c(=O)n([C@H]2C[C@H](O)[C@@H](CO)O2)cc1I" and print it.
76

Retrieve cell viability measured for "Clc1cc(Cl)c(OCC#CI)cc1Cl" and print it.
94.1

Retrieve cell viability measured for NC(CCC(=O)NC(CSCc1ccc(Br)cc1)C(=O)NCC(=O)OC1CCCC1)C(=O)OC1CCCC1 (centres undefined) and print it.
90.6

----------
cell viability listing for selected compounds.
# System: myeloid leukemia patient primary cells Pat.14
# assay_overview: cell viability (% survival relative to DMSO control); higher = less cytotoxic
# reported_conditions: 10000 nM; 72 h
Supply the numeric figure in %, leaving out any unit text.

compound: Nc1nc(O)c2c(CCc3ccc(C(=O)N[C@@H](CCC(=O)O)C(=O)O)cc3)c[nH]c2n1
u: %
experimental_result: 52.5
//
compound: O=C(/C=C/c1cccnc1)NCCCCC1CCN(C(=O)c2ccccc2)CC1
u: %
experimental_result: 0.671
//
compound: CN(C)CCNC(=O)c1cccn2c(=O)c3cc4ccccc4cc3nc12
u: %
experimental_result: 3.08
//
compound: O=C(c1c2ccccc2cc2ccccc12)N1CCC(N2CCC[C@@H](C(=O)N3CCOCC3)C2)CC1
u: %
experimental_result: 94.4
//
compound: Fc1ccc(CNc2ncnc3ccc(F)cc23)cc1
u: %
experimental_result: 31.2
//
compound: CC(C)c1onc(-c2c(Cl)cccc2Cl)c1COc1ccc(/C=C/c2cccc(C(=O)O)c2)c(Cl)c1
u: %
experimental_result: 2.05

Please look at CCC(CC#N)OC(=O)N[C@@H](C)c1cccc(NC(=O)Nc2ccc(-c3cnco3)c(OC)c2)c1 (stereo in doubt) and tell me its recorded cell viability on myeloid leukemia patient primary cells Pat.14.
34.3

----------
# Test system: BV-173
# assay_overview: cell viability (% survival relative to DMSO control, bortezomib = 0%); higher = less cytotoxic
# reported_conditions: 1000 nM; 72 h
Structures can show the parent of a compound that is named as a salt.
cell viability listing for selected molecules.
Supply the numeric figure in %, leaving out any unit text.

Some molecules with known cell viability results, for comparison:
molecule: OC[C@H]1N[C@@H](c2c[nH]c3c(O)ncnc23)[C@H](O)[C@@H]1O
u: %
experimental_result: 91.1

molecule: NCc1ccc(-c2cccnc2)s1
u: %
experimental_result: 104

molecule: Oc1ncc(F)c(O)n1
u: %
experimental_result: 86.4

molecule: CN(C)C(=O)n1nnnc1Cc1ccc(-c2ccccc2)cc1
u: %
experimental_result: 13.7

molecule: NS(=O)(=O)c1ccc(S(=O)(=O)Nc2cccc3c(Cl)c[nH]c23)cc1
u: %
experimental_result: 46.6

molecule: CC(C)(Cc1ccccc1)NCC(O)c1ccc(O)c(NS(C)(=O)=O)c1 (centres undefined) [Zinterol hydrochloride]
u: %
experimental_result: 87

molecule: c1ccc2nc(-c3nnc4sc(-c5cnccn5)nn34)ccc2c1
u: %
experimental_result: 100

molecule: COc1ccc2c(c1)c(CC(=O)O)c(C)n2C(=O)c1ccc(Cl)cc1
u: %
experimental_result: 112

Retrieve cell viability measured for "Fc1ccc(CNc2ncnc3ccc(F)cc23)cc1" and print it.
79.7

----------
# Tested on: NOMO-1
# reported_conditions: 72 h
IC50 (cell viability) listing for selected molecules.

Retrieve IC50 (cell viability) measured for "O=C1N[C@@H]2[C@@H](O)[C@@H](O)[C@H](O)[C@@H](CO)N2C1=O" and print it.
> 10 µM

----------
cell viability listing for selected compounds.
# Tested on: myeloid leukemia patient primary cells Pat.2
# assay_overview: cell viability (% survival relative to DMSO control); higher = less cytotoxic
# reported_conditions: 10 nM; 72 h
Structures can show the parent of a compound that is named as a salt.
Supply the numeric figure in %, leaving out any unit text.

Some compounds with known cell viability results, for comparison:
compound: O=C(Cc1cccc(OC(F)(F)F)c1)Nc1ccc(CCCCc2nnc(NC(=O)Cc3ccccn3)s2)nn1
cell viability / %: 91.3
--
compound: Fc1ccc(CNc2ncnc3ccc(F)cc23)cc1
cell viability / %: 88.7
--
compound: C=C1NC(=O)c2cc(CN(C)c3ccc(C(=O)N[C@@H](CCC(=O)O)C(=O)O)s3)ccc2N1
cell viability / %: 95
--
compound: c1ccc2c(c1)SCc1c-2[nH]c2ccccc12
cell viability / %: 89.3
--
compound: CC(C)(Cc1ccccc1)NCC(O)c1ccc(O)c(NS(C)(=O)=O)c1 (stereo unspecified) [Zinterol hydrochloride]
cell viability / %: 96.4

Now examine the next entry.
Retrieve cell viability measured for "Nc1nc(O)c2c(CCc3ccc(C(=O)N[C@@H](CCC(=O)O)C(=O)O)cc3)c[nH]c2n1" and print it.
96.3

----------
# Test system: HL-60
# assay_overview: cell viability (% survival relative to DMSO control); higher = less cytotoxic
# reported_conditions: 0.01 µM; 72 h; co-treatment: pictilisib 100 nM
assay_metric: cell viability (%)
Supply the numeric figure in %, leaving out any unit text.

molecule: Cc1[nH]n(-c2ccccc2)c(=O)c1C1(C(F)(F)F)C(=O)N(c2ccccc2)C2=C1C(=O)CC(C)(C)C2 (centres undefined)
target_or_test_system: HL-60
u: %
cell viability: 95.5
--
molecule: NS(=O)(=O)c1ccc(NC(=O)Cc2ccccc2)cc1 [4-(2-Phenylacetamido)Benzenesulfonamide]
target_or_test_system: HL-60
u: %
cell viability: 85.2
--
molecule: O[C@H]1[C@H](O)[C@@H](O)CN2CC[C@H](O)[C@H]12
target_or_test_system: HL-60
u: %
cell viability: 106
--
molecule: NCc1ccc(-c2cccnc2)s1
target_or_test_system: HL-60
u: %
cell viability: 91.2

Retrieve cell viability measured for "C=C1C(=O)O[C@H](CCCCCCCC)[C@H]1C(=O)O" and print it.
90.9

Retrieve cell viability measured for "Nc1nc(O)c2c(CCc3ccc(C(=O)N[C@@H](CCC(=O)O)C(=O)O)cc3)c[nH]c2n1" and print it.
101

Retrieve cell viability measured for "CCCCCCCCCCCCCCOc1ccc(C(=O)O)o1" and print it.
100

Retrieve cell viability measured for "Cc1nnc(-c2ccc(N3CCC(Oc4ccccc4C(F)(F)F)CC3)nn2)s1" and print it.
106

Retrieve cell viability measured for "Nc1ccn([C@@H]2O[C@H](CO)[C@@H](O)C2(F)F)c(=O)n1" and print it.
74.5

Retrieve cell viability measured for "N[C@@H](CCC(=O)N[C@@H](CS)C(=O)NCC(=O)O)C(=O)O" and print it.
96.4

Retrieve cell viability measured for "c1ccc2nc(-c3nnc4sc(-c5cnccn5)nn34)ccc2c1" and print it.
103

Retrieve cell viability measured for CCC(CC#N)OC(=O)N[C@@H](C)c1cccc(NC(=O)Nc2ccc(-c3cnco3)c(OC)c2)c1 (stereo in doubt) and print it.
98.5

Retrieve cell viability measured for "O=c1[nH]c(=O)n([C@H]2C[C@H](O)[C@@H](CO)O2)cc1I" and print it.
95.8

Retrieve cell viability measured for "CN(C)C(=O)n1nnnc1Cc1ccc(-c2ccccc2)cc1" and print it.
93.4

Retrieve cell viability measured for "CN(C)C(=N)NC(=N)N" and print it.
111
